test system: HDQ-P1; test: normalised response (% of control), CellTiter-Glo; higher = more viable cells (100 = DMSO, 0 = benzethonium chloride kill control); settings: incubation time: 72 h
reported.metric: normalised response (%)
Please reply with the bare figure in % and do not write the unit itself.

Recorded normalised response for CC[C@@H]1C(=O)N(C)c2cnc(Nc3ccc(C(=O)N[C@H]4CC[C@H](N5CCN(CC6CC6)CC5)CC4)cc3OC)nc2N1C(C)C [Volasertib] (10 nM) , please?
86.3

Name the recorded normalised response for C[C@]12C=CC(=O)C=C1CC[C@@H]1[C@@H]2C(=O)C[C@@]2(C)[C@H]1CC[C@]2(O)C(=O)CO [Prednisone] (100 nM) .
101

From here, focus on the item given below.
Given the compound CCCCCOC(=O)Nc1nc(=O)n([C@@H]2O[C@H](C)[C@@H](O)[C@H]2O)cc1F [Capecitabine] (100 nM) , what is its reported normalised response?
97.5
